- experimentalTarget: human ether-à-go-go-related gene (hERG) potassium channel (human);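 also: peak tail current of the secondary pulse compared with the same well before compound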
- Sequence (Q12809 whole entry, looked up): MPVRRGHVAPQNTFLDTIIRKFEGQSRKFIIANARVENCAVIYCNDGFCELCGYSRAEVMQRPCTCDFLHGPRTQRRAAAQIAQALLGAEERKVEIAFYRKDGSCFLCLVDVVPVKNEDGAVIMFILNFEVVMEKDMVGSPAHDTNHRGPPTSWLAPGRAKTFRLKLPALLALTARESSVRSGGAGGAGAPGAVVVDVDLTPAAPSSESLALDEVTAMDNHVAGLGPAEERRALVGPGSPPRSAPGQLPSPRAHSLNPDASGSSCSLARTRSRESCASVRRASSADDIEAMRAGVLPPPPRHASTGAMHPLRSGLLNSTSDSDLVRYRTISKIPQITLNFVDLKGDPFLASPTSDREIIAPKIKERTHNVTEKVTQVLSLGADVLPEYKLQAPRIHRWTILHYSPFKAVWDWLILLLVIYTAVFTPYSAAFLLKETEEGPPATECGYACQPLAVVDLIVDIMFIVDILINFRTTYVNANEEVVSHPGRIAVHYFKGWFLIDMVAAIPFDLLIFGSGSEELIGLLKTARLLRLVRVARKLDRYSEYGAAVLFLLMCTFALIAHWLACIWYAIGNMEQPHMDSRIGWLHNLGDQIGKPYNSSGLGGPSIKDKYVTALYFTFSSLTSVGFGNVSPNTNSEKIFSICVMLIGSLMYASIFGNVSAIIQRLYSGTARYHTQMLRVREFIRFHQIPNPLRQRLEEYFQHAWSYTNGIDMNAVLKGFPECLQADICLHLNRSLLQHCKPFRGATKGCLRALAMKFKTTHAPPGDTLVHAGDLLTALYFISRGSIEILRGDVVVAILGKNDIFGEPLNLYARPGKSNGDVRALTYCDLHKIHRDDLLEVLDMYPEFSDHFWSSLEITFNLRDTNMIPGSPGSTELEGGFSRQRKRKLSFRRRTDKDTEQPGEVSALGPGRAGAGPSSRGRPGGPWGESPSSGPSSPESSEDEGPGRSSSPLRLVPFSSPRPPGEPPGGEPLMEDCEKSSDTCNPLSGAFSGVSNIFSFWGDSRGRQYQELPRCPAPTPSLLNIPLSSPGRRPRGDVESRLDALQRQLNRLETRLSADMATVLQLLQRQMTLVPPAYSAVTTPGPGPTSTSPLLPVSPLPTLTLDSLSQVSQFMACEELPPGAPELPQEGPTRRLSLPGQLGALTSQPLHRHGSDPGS
- protocolDetails: primary screen, population patch clamp on CHO cells stably expressing hERG; higher = less effect of the substance
The campaign covered roughly 310,000 compounds. About 14,000 (4.5%) showed an effect of 50% or more. Effects have a minus sign here. Many of the other results were omitted from the sample, so strong results are more common in it than they were.
Use True when the recorded hERG current change (%, negative = inhibition) at 10uM is no lower than -30%; use False when it is lower.

{"columns": ["compound", "labelValue"],
 "data": [
  ["Cc1c(N=C/C=C2/N(C)c3ccccc3C2(C)C)c(=O)n(-c2ccccc2)n1C", "False"],
  ["Cc1ccc(-c2nc(CS(=O)CC(=O)N3CCN(c4ccc(F)cc4)CC3)c(C)o2)cc1 (centres unmarked)", "False"],
  ["COc1ccccc1-c1cc(C(=O)NCCCN2CCOCC2)no1", "True"],
  ["CCOc1ccccc1-c1nc(CN2CCC(C(=O)N3CCOCC3)CC2)c(C)o1", "True"],
  ["CN1CCc2c(sc3c2C(=O)NC(/C=C\\c2ccccc2)N3)C1 (centres unmarked)", "False"],
  ["CC(CNC(=O)CCC(=O)N1CCOc2ccc(Cl)cc21)c1ccccc1 (centres unmarked)", "False"],
  ["O=[N+]([O-])c1ccc(C[n+]2cc(-c3ccccc3)n3c2CCCCC3)cc1.[Br-]", "False"],
  ["CN1/C(=C\\C=C(C#N)C#N)C(C)(C)c2ccccc21", "True"],
  ["CN(C)c1ccc(N=C/C=C2\\N(C)c3ccccc3C2(C)C)cc1", "False"],
  ["Cc1ccc(-c2nc(CSCC(=O)N3CCN(c4ccccn4)CC3)c(C)o2)cc1", "True"],
  ["CCCCNC(=O)C1CCC(CNS(=O)(=O)c2c(C)cc(C)cc2C)CC1 (centres unmarked)", "True"],
  ["CC1CCN(CCCNC(=O)C2CCC(CNS(=O)(=O)c3ccccc3)CC2)CC1 (centres unmarked)", "True"],
  ["CN(C)CCNc1ccc(-c2nn(C)c(=O)c3ccccc23)cc1[N+](=O)[O-]", "True"],
  ["CCOC(=O)/C=C1\\SCC(=O)N1CC(=O)NCCOC", "True"],
  ["Clc1ccc(-c2c[n+](Cc3ccc(Cl)cc3Cl)c3n2CCCCC3)cc1.[Br-]", "False"],
  ["CC(C)c1ccc(N(CC(=O)NCC2CCCO2)C(=O)Cn2nnc(-c3cccs3)n2)cc1 (centres unmarked)", "False"],
  ["CN1/C(=C\\P(=O)(N(C)C)N(C)C)C(C)(C)c2ccccc21", "True"],
  ["COc1ccc(-c2nc(CN3CCC(C(=O)N4CCOCC4)CC3)c(C)o2)cc1OC", "True"],
  ["Cc1cc(NCCCn2ccnc2)n2ncc(-c3ccccc3)c2n1", "False"],
  ["CC1CCc2c(nc3sc4c(c3c2N)CCCC4)C1 (centres unmarked)", "True"],
  ["CN1CCc2c(sc3c2C(=O)NC(c2ccccn2)N3)C1 (centres unmarked)", "True"],
  ["Cc1c(N=C/C=C2\\N(C)c3ccccc3C2(C)C)c(=O)n(-c2ccccc2)n1C", "False"],
  ["Cc1ccc(S(=O)(=O)NCC2CCC(C(=O)NCCCN3CCOCC3)CC2)cc1 (centres unmarked)", "True"],
  ["COc1ccc(NC(=S)N2CCC(N(C)CCN3CCOCC3)CC2)cc1Cl", "True"],
  ["CCc1ccc(-c2nc(CSCC(=O)N3CCN(c4ncccn4)CC3)c(C)o2)cc1", "True"],
  ["COc1ccc(OC)c(-c2cc(C(=O)NCCN3CCOCC3)no2)c1", "True"],
  ["CN1CCc2c(sc3c2C(=O)NC(/C=C/c2ccco2)N3)C1 (centres unmarked)", "True"],
  ["CCN(C(=O)c1nn(-c2ccc(OC)cc2)c(=O)c2c1c1ccccc1n2C)c1ccc(OC)cc1", "True"],
  ["Cc1c(NC(=O)Cn2cc([N+](=O)[O-])cn2)c(=O)n(-c2ccccc2)n1C", "True"],
  ["CCCCCC/C=C/c1ccc([C@H]2[C@H]3C=CC[C@@H](C)[C@@H]3C(=O)N2Cc2ccccc2)c(F)c1", "True"],
  ["Cc1c(NC(=S)/C=C2\\N(C)c3ccccc3C2(C)C)c(=O)n(-c2ccccc2)n1C", "True"],
  ["Clc1ccc(C[n+]2cc(-c3ccccc3)n3c2CCC3)cc1.[Cl-]", "False"],
  ["CCCCN(C)CCCNC(=O)C1CCC(CNS(=O)(=O)c2c(C)cc(C)cc2C)CC1 (centres unmarked)", "False"],
  ["Cc1ccccc1-c1nc(CN2CCC(C(=O)N3CCN(c4ccccn4)CC3)CC2)c(C)o1", "False"],
  ["CC(C)(C)c1cc(NCCCn2ccnc2)n2ncc(-c3ccc(Cl)cc3)c2n1", "True"],
  ["Cc1ccc(-c2nc(CS(=O)CC(=O)N3CCN(c4ncccn4)CC3)c(C)o2)cc1 (centres unmarked)", "False"],
  ["O=C(COc1ccc(CO)cc1)Nc1ccc(F)cc1", "True"],
  ["CN1CCc2c(sc3c2C(=O)NC(c2ccc4c(c2)OCO4)N3)C1 (centres unmarked)", "True"]
]}

---

hERG current change (%, negative = inhibition) at 10uM by entry:
- experimentalTarget: human ether-à-go-go-related gene (hERG) potassium channel (human);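 also: peak tail current of the secondary pulse compared with the same well before compound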
- protocolDetails: primary screen, population patch clamp on CHO cells stably expressing hERG; higher = less effect of the substance
Among all 310,000 compounds or so, about 14,000 (4.5%) showed an effect of 50% or more. Effects have a minus sign here. This excerpt belongs to a sample that is enriched for strong results.
observedProperty: hERG current change (%, negative = inhibition) at 10uM (%)

{"columns": ["compound", "val"],
 "data": [
  ["CN(Cc1ccccc1)S(=O)(=O)c1ccc(OCC(=O)NCc2ccncc2)cc1", -53.6],
  ["O=C1Cc2ccccc2C(=O)N1Cc1cccc(Cl)c1", 11.5],
  ["Cc1cc(=O)[nH]c2c1c(C)nn2C1CCCCC1", -3.84],
  ["CCSc1nnc(NC(=O)CCNS(=O)(=O)c2cc(Br)cnc2N)s1", 0.00778],
  ["Cc1ccc(-n2ncc(C(=O)N3CCN(C(=O)c4ccco4)CC3)c2C2CCN(C(=O)OC(C)(C)C)CC2)cc1C", 0.366],
  ["CN(Cc1ccccc1)S(=O)(=O)c1ccc(Cl)c(C(=O)NCc2cccnc2)c1", -32.8],
  ["O=C(c1ccc2c(c1)OCO2)C1CCCN(Cc2c(F)ccc(F)c2F)C1 (stereo not shown)", -15.8],
  ["CC(=O)Nc1ncc(Cc2cc(Cl)ccc2Cl)s1", -1.4],
  ["Cc1cc(C)nc(N(C#N)CC(=O)c2ccccc2)n1", -42.9],
  ["CC(C)=CCOc1c2occc2cc2ccc(=O)oc12", -17.9],
  ["CN(Cc1ccccc1)S(=O)(=O)c1ccc(Cl)c(C(=O)O)c1", 9.33],
  ["CC(C)(C)OC(=O)N1CCC(c2c(C(=O)N3CCN(C(=O)c4ccco4)CC3)cnn2-c2cccc(Cl)c2)CC1", -65.6],
  ["CN(Cc1ccccc1)S(=O)(=O)c1ccc(OCC(=O)NCc2ccccn2)cc1", -32.6],
  ["CSc1ccccc1NC(=O)N1CCCC(C(=O)c2ccc3c(c2)OCO3)C1 (stereo not shown)", -39.8],
  ["O=C(Nc1nnc(-c2cccs2)o1)C1CC1", 3.93],
  ["CC(C)CCNCC(O)CON=C1c2ccccc2-c2ccccc21 (stereo not shown)", -32.2],
  ["COCCn1c(=O)c2c(nc3n2CC(C)CN3CCc2ccccc2)n(C)c1=O (stereo not shown)", -56.6],
  ["C=CCn1c(=O)c2c(nc3n2CCCN3CCc2ccccc2)n(C)c1=O", -19.8],
  ["CCN(C(=O)COC(=O)CCC(=O)c1cccs1)c1c(N)n(Cc2ccccc2)c(=O)[nH]c1=O", -4.97],
  ["O=C(c1ccc2c(c1)OCO2)C1CCCN(Cc2ccc(F)c(F)c2)C1 (stereo not shown)", -65.4],
  ["C=CCn1c(=O)c2c(nc3n2CC(C)CN3CCc2ccccc2)n(C)c1=O (stereo not shown)", -72],
  ["CC(=O)c1cccc(CN2CCCC(C(=O)c3ccc4c(c3)OCO4)C2)c1 (stereo not shown)", -64.9],
  ["CCCN1C(=O)c2cc(C(=O)Nc3ccccc3CC)ccc2C1O (stereo not shown)", 2.3],
  ["O=C(c1ccc2c(c1)OCO2)C1CCCN(Cc2cccc(C(F)(F)F)c2)C1 (stereo not shown)", -20.5],
  ["O=C(N/N=C/c1ccc([N+](=O)[O-])s1)c1cccnc1", 5.77],
  ["O=c1[nH]c(/C=C/c2cccc3ccccc23)nc2ccccc12", 36.4],
  ["CCc1ccc(C(=O)CN(C#N)c2nc(C)cc(C)n2)cc1", -75.6],
  ["CN(Cc1ccccc1)S(=O)(=O)c1ccc(Cl)c(C(=O)NCc2ccncc2)c1", -55.8],
  ["CC(C)(C)OC(=O)N1CCC(c2c(C(=O)N3CCN(C(=O)c4ccco4)CC3)cnn2-c2ccc(F)cc2)CC1", -14.8],
  ["CCOC(=O)C1CCCN(Cc2ccc3c(c2)OCO3)C1 (stereo not shown)", -9.12],
  ["CC(=O)c1ccc(NC(=O)N2CCCC(C(=O)c3ccc4c(c3)OCO4)C2)cc1 (stereo not shown)", -16.4]
]}
